- Test system: Oryza sativa
- assaySummary: Inhibition of rice alpha-galactosidase at 0.1 mM
Active and inactive are the calls of the source. No cut-off for these calls is given here.
quantity: inhibition

Examples from the recorded data:
INSERT INTO measurements (molecule, observed) VALUES
  ('O[C@@H]1[C@@H](O)[C@H](O)[C@@H](NCc2cn(CCc3ccccc3)nn2)[C@H](O)[C@H]1O', 'inactive'),
  ('CCCCCCCCCCn1cc(CN[C@H]2[C@H](O)[C@@H](O)[C@H](O)[C@@H](O)[C@@H]2O)nn1', 'inactive'),
  ('CCCCCCCCCCCn1cc(CCN[C@H]2[C@H](O)[C@@H](O)[C@H](O)[C@@H](O)[C@@H]2O)nn1', 'inactive'),
  ('CCCCCCCCCCCCCCn1cc(CN[C@H]2[C@H](O)[C@@H](O)[C@H](O)[C@@H](O)[C@@H]2O)nn1', 'inactive'),
  ('CCCCCCCCCn1cc(CN[C@H]2[C@H](O)[C@@H](O)[C@H](O)[C@@H](O)[C@@H]2O)nn1', 'inactive');

Consider the additional compound presented here.
Documented inhibition of CCCCn1cc(CN[C@H]2[C@H](O)[C@@H](O)[C@H](O)[C@@H](O)[C@@H]2O)nn1 : inactive

* * *

- measuredOn: Lysosomal acid glucosylceramidase (Homo sapiens, UniProt P04062)
- Sequence (P04062 whole entry): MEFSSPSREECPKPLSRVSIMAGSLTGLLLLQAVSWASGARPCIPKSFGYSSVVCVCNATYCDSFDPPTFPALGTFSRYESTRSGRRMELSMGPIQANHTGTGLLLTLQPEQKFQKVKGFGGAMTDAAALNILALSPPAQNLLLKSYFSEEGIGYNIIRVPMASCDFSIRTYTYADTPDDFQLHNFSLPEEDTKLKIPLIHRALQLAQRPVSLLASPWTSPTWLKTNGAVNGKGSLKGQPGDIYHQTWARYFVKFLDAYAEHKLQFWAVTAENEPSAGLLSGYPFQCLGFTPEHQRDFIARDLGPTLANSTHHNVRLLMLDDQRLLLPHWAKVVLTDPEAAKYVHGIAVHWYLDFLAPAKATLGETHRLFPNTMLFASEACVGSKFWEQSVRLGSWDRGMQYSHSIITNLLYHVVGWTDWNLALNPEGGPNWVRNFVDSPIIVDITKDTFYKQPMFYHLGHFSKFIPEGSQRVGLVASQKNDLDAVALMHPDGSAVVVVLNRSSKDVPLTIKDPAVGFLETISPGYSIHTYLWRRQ
- assaySummary: Inhibition of recombinant beta-glucocerebrosidase at pH 5.2 after 10 mins by fluorimetry
quantity: IC50 (nM)

INSERT INTO measurements (molecule, quantity, observed) VALUES
  ('CCCCCCCCCCn1cc(CCCN[C@H]2[C@H](O)[C@@H](O)[C@H](O)[C@@H](O)[C@@H]2O)nn1', 'IC50', 3500);

1. CCCCCCCCn1cc(CN[C@H]2[C@H](O)[C@@H](O)[C@H](O)[C@@H](O)[C@@H]2O)nn1
2. CCCCCCCCCCCCCCn1cc(CN[C@H]2[C@H](O)[C@@H](O)[C@H](O)[C@@H](O)[C@@H]2O)nn1
3. CCCCCCn1cc(CCCN[C@H]2[C@H](O)[C@@H](O)[C@H](O)[C@@H](O)[C@@H]2O)nn1
(Q) # desc sort on IC50 across 3 compounds Answer by listing the labels in the order asked for.
(A) 3, 1, 2
(3: 257000 nM, 1: 1000 nM, 2: 90 nM)

* * *

- measuredOn: Lysosomal acid glucosylceramidase (Homo sapiens, UniProt P04062)
- assaySummary: Inhibition of recombinant beta-glucocerebrosidase after 10 mins by fluorimetry
quantity: IC50 (µM)

Below, each entry is followed by its recorded IC50 result.
INSERT INTO measurements (molecule, measuredon, observed) VALUES
  ('CCCCCCCCCCn1cc(CN[C@H]2[C@H](O)[C@@H](O)[C@H](O)[C@@H](O)[C@@H]2O)nn1', 'Lysosomal acid glucosylceramidase (Homo sapiens, UniProt P04062)', 0.0933),
  ('CCCCn1cc(CN[C@H]2[C@H](O)[C@@H](O)[C@H](O)[C@@H](O)[C@@H]2O)nn1', 'Lysosomal acid glucosylceramidase (Homo sapiens, UniProt P04062)', 178);

1. CCCCCCCCCCCCn1cc(CN[C@H]2[C@H](O)[C@@H](O)[C@H](O)[C@@H](O)[C@@H]2O)nn1
2. CCCCCCCCCCCCCCn1cc(CN[C@H]2[C@H](O)[C@@H](O)[C@H](O)[C@@H](O)[C@@H]2O)nn1
3. CCCCCCCCn1cc(CN[C@H]2[C@H](O)[C@@H](O)[C@H](O)[C@@H](O)[C@@H]2O)nn1
4. CCCCCCCCn1cc(CCCN[C@H]2[C@H](O)[C@@H](O)[C@H](O)[C@@H](O)[C@@H]2O)nn1
5. CCCCCCCCCCn1cc(CCCN[C@H]2[C@H](O)[C@@H](O)[C@H](O)[C@@H](O)[C@@H]2O)nn1
(Q) Ascending by IC50, please: list the compounds accordingly. Put the labels in the order asked and list them.
(A) 1, 2, 3, 5, 4
